Experiment: In vitro metabolic stability in mouse liver microsomes
Format: in vitro ADME
Settings: 37 °C, 0.4 mg/mL protein, NADPH
Property Name: m CLint

Worked examples follow.
| Compound | Endpoint Result |
| --- | --- |
| CS(=O)(=O)O.NC1C2CC3CC1CC(C2)C31OO[C@]2(CC[C@@H](c3ccc(OCC(=O)O)cc3)CC2)O1 (stereo partly drawn) | 8 μL/(min mg) protein |
| O=C([O-])C1CCN(CCOc2ccc([C@H]3CC[C@]4(CC3)OOC3(O4)C4CC5CC(C4)CC3C5)cc2)CC1.[Na+] (stereo partly drawn) | 9 μL/(min mg) protein |
| CS(=O)(=O)NC(=O)COc1ccc([C@H]2CC[C@]3(CC2)OOC2(O3)C3CC4CC(C3)CC2C4)cc1 (stereo partly drawn) | 12 μL/(min mg) protein |
| O=C(O)COc1ccc([C@H]2CC[C@]3(CC2)OOC2(O3)C3CC4CC2CC(C3)C4(F)F)cc1 (stereo partly drawn) | 130 μL/(min mg) protein |
| O=C(O)CCCCOc1ccc([C@H]2CC[C@]3(CC2)OOC2(O3)C3CC4CC(C3)CC2C4)cc1 (stereo partly drawn) | 13 μL/(min mg) protein |

Hi! Can you tell me m CLint for each of these compounds?
1. O=C(O)CN1CCC(Oc2ccc([C@H]3CC[C@]4(CC3)OOC3(O4)C4CC5CC(C4)CC3C5)cc2)CC1 (stereo partly drawn)
2. O=C(O)COc1ccc([C@H]2CC[C@]3(CC2)OOC2(O3)C3CC4CC(C3)CC2C4)cc1C(=O)O (stereo partly drawn)
3. O=C(O)c1cccc([C@H]2CC[C@]3(CC2)OOC2(O3)C3CC4CC(C3)CC2C4)c1 (stereo partly drawn)

1: <7/<7 μL/(min mg) protein; 2: 8 μL/(min mg) protein; 3: 30 μL/(min mg) protein

Hi! Can you tell me m CLint for each of these compounds?
1. CC(=O)NC1C2CC3CC1CC(C2)C31OO[C@]2(CC[C@@H](c3ccc(OCC(=O)O)cc3)CC2)O1 (stereo partly drawn)
2. O=C(O)c1cc([C@H]2CC[C@]3(CC2)OOC2(O3)C3CC4CC(C3)CC2C4)ccc1O (stereo partly drawn)
3. CS(=O)(=O)O.CS(=O)(=O)O.O=C(O)CNCc1ccc([C@H]2CC[C@]3(CC2)OOC2(O3)C3CC4CC2CC(C3)N4)cc1 (stereo partly drawn)
4. CC(C)(Oc1ccc([C@H]2CC[C@]3(CC2)OOC2(O3)C3CC4CC(C3)CC2C4)cc1)C(=O)O (stereo partly drawn)
5. O=C(O)CCCOc1ccc([C@H]2CC[C@]3(CC2)OOC2(O3)C3CC4CC(C3)CC2C4)cc1 (stereo partly drawn)

1. < 7 μL/(min mg) protein
2. 20 μL/(min mg) protein
3. <7/<7 μL/(min mg) protein
4. <7/7 μL/(min mg) protein
5. 8 μL/(min mg) protein

Hi! Can you tell me m CLint for each of these compounds?
1. O=C(O)COc1ccc([C@H]2CC[C@]3(CC2)OOC2(O3)C3CC4CC2CC(C3)C4O)cc1 (stereo partly drawn)
2. CS(=O)(=O)O.O=C(O)C1CN(Cc2ccc([C@H]3CC[C@]4(CC3)OOC3(O4)C4CC5CC(C4)CC3C5)cc2)C1 (stereo partly drawn)
3. O=C(O)COc1ccc([C@H]2CC[C@]3(CC2)OOC2(O3)C3CC4CC(C3)CC2C4)cc1Cl (stereo partly drawn)
4. CS(=O)(=O)O.O=C(O)CNCc1ccc([C@H]2CC[C@]3(CC2)OOC2(O3)C3CC4CC(C3)CC2C4)cc1 (stereo partly drawn)

1. <7/<7 μL/(min mg) protein
2. 10 μL/(min mg) protein
3. 8 μL/(min mg) protein
4. 10 μL/(min mg) protein

What value of m CLint has been reported for the following compound? CS(=O)(=O)O.O=C(O)COc1ccc([C@H]2CC[C@]3(CC2)OOC2(O3)C3CC4CC2CC(C3)N4)cc1 (stereo partly drawn)
27 μL/(min mg) protein

---

Assay: In vitro metabolic stability in human liver microsomes
Type: in vitro ADME
Settings: 37 °C, 0.4 mg/mL protein, NADPH
Property Name: h CLint

Worked examples follow.
| Compound | Endpoint Result |
| --- | --- |
| CS(=O)(=O)O.O=C(O)COc1ccc([C@H]2CC[C@]3(CC2)OOC2(O3)C3CC4CC2CC(C3)N4)cc1 (some centres unmarked) | 35 μL/(min mg) protein |
| O=C(O)COc1ccc([C@H]2CC[C@]3(CC2)OOC2(O3)C3CC4CC(C3)CC2C4)cc1Cl (some centres unmarked) | < 7 μL/(min mg) protein |
| CS(=O)(=O)NC(=O)COc1ccc([C@H]2CC[C@]3(CC2)OOC2(O3)C3CC4CC(C3)CC2C4)cc1 (some centres unmarked) | < 7 μL/(min mg) protein |
| O=C(O)CCCOc1ccc([C@H]2CC[C@]3(CC2)OOC2(O3)C3CC4CC(C3)CC2C4)cc1 (some centres unmarked) | < 7 μL/(min mg) protein |

Here is another compound to look at.
What value of h CLint has been reported for the following compound? CS(=O)(=O)O.NC1C2CC3CC1CC(C2)C31OO[C@]2(CC[C@@H](c3ccc(OCC(=O)O)cc3)CC2)O1 (some centres unmarked)
13 μL/(min mg) protein

---

Answer each item with its documented sol2.0.
Assay: Kinetic solubility by nephelometry
Type: physicochemical
Details: kinetic solubility, 0.01 M HCl (approx. pH 2.0), 1% DMSO, 30 min

Hi! Can you tell me sol2.0 for each of these compounds?
1. CC(=O)NC1C2CC3CC1CC(C2)C31OO[C@]2(CC[C@@H](c3ccc(OCC(=O)O)cc3)CC2)O1 (stereo partly shown) [Compound 22]
2. O=C([O-])C1CCN(CCOc2ccc([C@H]3CC[C@]4(CC3)OOC3(O4)C4CC5CC(C4)CC3C5)cc2)CC1.[Na+] (stereo partly shown) [Compound 15]
3. CS(=O)(=O)O.NC1C2CC3CC1CC(C2)C31OO[C@]2(CC[C@@H](c3ccc(OCC(=O)O)cc3)CC2)O1 (stereo partly shown) [Compound 23]
4. CS(=O)(=O)O.O=C(O)C1CN(Cc2ccc([C@H]3CC[C@]4(CC3)OOC3(O4)C4CC5CC(C4)CC3C5)cc2)C1 (stereo partly shown) [Compound 18]
5. O=C(O)CCCCOc1ccc([C@H]2CC[C@]3(CC2)OOC2(O3)C3CC4CC(C3)CC2C4)cc1 (stereo partly shown) [Compound 10]
6. CS(=O)(=O)O.O=C(O)COc1ccc([C@H]2CC[C@]3(CC2)OOC2(O3)C3CC4CC2CC(C3)N4)cc1 (stereo partly shown) [Compound 24]
7. O=C(O)CNC(=O)COc1ccc([C@H]2CC[C@]3(CC2)OOC2(O3)C3CC4CC(C3)CC2C4)cc1 (stereo partly shown) [Compound 14]
8. O=C(O)c1cccc([C@H]2CC[C@]3(CC2)OOC2(O3)C3CC4CC(C3)CC2C4)c1 (stereo partly shown) [Compound 4]

1. 3.1 to 6.3 µg/mL
2. 3.1 to 6.3 µg/mL
3. 6.3 to 12.5 µg/mL
4. 6.3 to 12.5 µg/mL
5. <1.6/<1.6 μg/mL
6. 3.1 to 6.3 µg/mL
7. 12.5 to 25 µg/mL
8. <1.6/<1.6 μg/mL

Hi! Can you tell me sol2.0 for each of these compounds?
1. CS(=O)(=O)O.CS(=O)(=O)O.O=C(O)CNCc1ccc([C@H]2CC[C@]3(CC2)OOC2(O3)C3CC4CC2CC(C3)N4)cc1 (stereo partly shown) [Compound 25]
2. CS(=O)(=O)O.O=C(O)CNCc1ccc([C@H]2CC[C@]3(CC2)OOC2(O3)C3CC4CC(C3)CC2C4)cc1 (stereo partly shown) [Compound 17]

1: > 100 µg/mL; 2: < 12.5 µg/mL

---

Tested on: foreskin fibroblast (HFF)
Assay: Cytotoxicity screen
Type: cell-based, human
Settings: 24 h, Alamar blue, data not shown
Answer each item with its documented cytotoxicity: concentration without inhibition of the cell line.

Worked examples follow.
| Molecule | Endpoint Result |
| --- | --- |
| O=C(O)COc1ccc([C@H]2CC[C@]3(CC2)OOC2(O3)C3CC4CC(C3)CC2C4)cc1Cl (stereo partly shown) [Compound 7] | > 50 µM |
| O=C(O)CN1CCC(Oc2ccc([C@H]3CC[C@]4(CC3)OOC3(O4)C4CC5CC(C4)CC3C5)cc2)CC1 (stereo partly shown) [Compound 16] | > 50 µM |
| CS(=O)(=O)O.O=C(O)CNCc1ccc([C@H]2CC[C@]3(CC2)OOC2(O3)C3CC4CC(C3)CC2C4)cc1 (stereo partly shown) [Compound 17] | > 50 µM |

Here is another molecule to look at.
What value of cytotoxicity: concentration without inhibition of the cell line has been reported for the following molecule? O=C(O)CNC(=O)COc1ccc([C@H]2CC[C@]3(CC2)OOC2(O3)C3CC4CC(C3)CC2C4)cc1 (stereo partly shown) [Compound 14]
> 50 µM
